Target under test: Phospholipase A2 (Homo sapiens, UniProt P04054);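 note: confirmatory dose-response counterscreen on phospholipase A2, testing hits that came from an ultra-high-throughput screen for ATG4B inhibitors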
Sequence (P04054 whole entry): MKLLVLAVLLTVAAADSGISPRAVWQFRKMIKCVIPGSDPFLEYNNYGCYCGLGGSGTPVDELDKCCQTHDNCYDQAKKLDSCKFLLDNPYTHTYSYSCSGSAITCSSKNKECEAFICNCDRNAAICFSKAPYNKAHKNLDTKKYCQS
Type: functional
Active and inactive are the calls of the source.
Just give me one of these, please: t = active, f = inactive

Structure smiles string: Cc1ccccc1S(=O)(=O)N1[C@@H](c2ccc(Br)cc2)C(C(=O)O)=CC[C@H]1c1ccc(Cl)cc1
Assigned label: t
//
Structure smiles string: Cc1ccc(N2C(=O)/C(=C\Nc3ccccc3-c3nnc(S)nc3O)c3ccccc3C2=O)c(C)c1
Assigned label: t
//
Structure smiles string: CCCCCC(=O)Nc1ccccc1N1CCN(c2ccccc2)CC1
Assigned label: t

Okay, next one:
// param item: Oc1c(Br)cc(Br)cc1/C=N/n1c(S)nnc1-c1ccccc1 ; yields the recorded call f

====

AC50 data for Cytochrome P450 1A2 (Homo sapiens) follow.

AC50 reading for Cc1ccc(C)c(-n2c(CNC(=O)c3ccco3)nnc2SCC(=O)N2CCc3ccccc32)c1 : 2.51 µM (inconclusive)

AC50 reading for Cc1ccc(C(=O)ON=C2CCN(S(=O)(=O)c3ccccc3)CC2)cc1 : 28.2 µM (inconclusive)

AC50 reading for COCCn1c(=O)c(-c2cccc(C#N)c2)nc2cnc(N(C)C)nc21 : 2 µM (inconclusive)

AC50 reading for CCN1C(=O)C(CC(=O)Nc2ccc(Br)cc2)N(CCCc2ccccc2)C1=S (configuration not stated) : 14.1 µM (inconclusive)

AC50 reading for CCCCNS(=O)(=O)c1ccc(OC)c(Cl)c1Cl : 4.47 µM (inconclusive)

AC50 reading for CCOC(=O)c1c(-c2ccc(OC)cc2)csc1NC(=O)CCN1C(=O)c2ccccc2C1=O : 12.6 µM (inconclusive)

AC50 reading for CC1Cc2ccccc2N1C(=O)CCN1C(=O)C2C3C=CC(C3)C2C1=O (configuration not stated) : 10 µM (inconclusive)

====

Target under test: DNA dC->dU-editing enzyme APOBEC-3G (Homo sapiens, UniProt Q9HC16)
Sequence (Q9HC16 whole entry): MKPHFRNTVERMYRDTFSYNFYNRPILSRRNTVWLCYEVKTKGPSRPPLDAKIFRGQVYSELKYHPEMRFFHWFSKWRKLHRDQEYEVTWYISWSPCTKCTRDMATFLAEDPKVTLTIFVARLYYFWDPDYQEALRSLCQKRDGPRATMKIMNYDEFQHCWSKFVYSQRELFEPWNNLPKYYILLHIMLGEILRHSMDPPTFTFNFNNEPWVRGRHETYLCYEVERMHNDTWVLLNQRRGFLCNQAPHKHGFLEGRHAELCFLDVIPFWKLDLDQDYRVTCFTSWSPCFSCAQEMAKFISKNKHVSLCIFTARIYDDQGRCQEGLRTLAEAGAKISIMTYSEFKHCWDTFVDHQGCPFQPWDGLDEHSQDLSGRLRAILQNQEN
Protocol text: Dose Response confirmation of small molecule APOBEC3G DNA Deaminase Inhibitors via a fluorescence-based single-stranded DNA deaminase assay. [Related pubchem assays (depositor defined):AID493012, AID493028]
Format: functional
Active and inactive are the calls of the source.
Recorded endpoint: IC50

Examples with answers:
Structure smiles string: O=C(Nc1ccc(Cl)cc1Cl)c1cccc(N2C(=O)C=CC2=O)c1
Recorded endpoint: IC50
Test value: 13.8 µM (active)
--
Structure smiles string: COc1ccccc1NS(=O)(=O)c1cc(NC(=O)C2CCC2)ccc1N1CCCCC1
Recorded endpoint: IC50
Test value: 46.8 µM (active)
--
Structure smiles string: CN(C)c1ccc(/C=N/n2c(S)nnc2-c2cccnc2)cc1
Recorded endpoint: IC50
Test value: 2.56 µM (active)
--
Structure smiles string: Oc1ccc(-c2n[nH]c(=S)[nH]2)cc1
Recorded endpoint: IC50
Test value: 4.02 µM (active)
--
Structure smiles string: Cc1ccsc1/C=N/n1c(S)nnc1-c1ccncc1
Recorded endpoint: IC50
Test value: 2.45 µM (active)

IC50 reading for Cn1c(S)nnc1-c1cc2c(C(F)(F)F)nn(C)c2s1 : 1.84 µM (active)

====

Recorded EC50 values for a group of compounds are listed next.
Protocol text: Trypanosoma cruzi growth suppression in host cells – NIH3T3 host cells, beta-gal luminescence, confirmation (AID 2044);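 note: intracellular parasites grown in NIH/3T3 mouse fibroblasts as host cells; luminescent beta-galactosidase reporter signal from transgenic T. cruzi replicating inside host cells; inhibitors lower the luminescence signal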
Type: functional, cell-based
Activity calls are given as the source filed them.

Examples with answers:
Compound: CCn1c(NCc2cc(Br)ccc2NS(=O)(=O)c2ccc(C)cc2)nc2ccccc21
Test value: 2610 nM (active)
//
Compound: O=[N+]([O-])c1ccc(S(=O)(=O)NCC(c2ccco2)N2CCc3ccccc3C2)cc1 (centres undefined)
Test value: 1860 nM (active)
//
Compound: CCn1nc(C)c(NC(=O)/C=C/c2ccc(OC)c(COc3ccc(Cl)cc3Br)c2)c1C
Test value: 736 nM (active)

EC50 reading for CN(C)CCCN(C(=O)c1ccc(N2C(=O)CCC2=O)cc1)c1nc2c(F)cccc2s1 : 471 nM (active)
